Test system: HOP-92
run-description: Growth inhibition of human HOP92 cells after 48 hrs by sulforhodamine B assay
Format: functional, cell-based
condition-summary: HOP-92, 48 h
measurement-name: LC50

Sample records with LC50:
O=C(Nc1cccc(-n2cc(-c3ccncc3)c(-c3ccc(Cl)c(O)c3)n2)c1)c1ccc(N2CCOCC2)c(C(F)(F)F)c1 : > 50 µM
COc1cc(-c2nn(-c3cccc(NC(=O)Nc4ccc(Cl)c(C(F)(F)F)c4)c3)cc2-c2ccncc2)ccc1Cl : > 32.5 µM

Now take the following compound into account.
Asked: Please give the measured LC50 for this compound: O=C(Nc1cccc(-n2cc(-c3ccncc3)c(-c3ccc(Cl)c(O)c3)n2)c1)Nc1ccc(Cl)c(Cl)c1
Given back: > 32.5 µM

###

Test system: SK-MEL-2
run-description: Growth inhibition of human SK-MEL-2 cells after 48 hrs by sulforhodamine B assay
Type: functional
condition-summary: SK-MEL-2, 48 h
measurement-name: LC50 (50% lethal concentration)

Some solved entries appear below for comparison.
COc1cc(-c2nn(-c3cccc(NC(=O)c4ccccc4)c3)cc2-c2ccncc2)ccc1Cl : > 100 µM
O=C(Nc1cccc(-n2cc(-c3ccncc3)c(-c3ccc(Cl)c(O)c3)n2)c1)Nc1ccc(Cl)c(Cl)c1 : > 32.5 µM

With those in mind, consider the next compound.
Asked: What does the record list as LC50 (50% lethal concentration) for COc1cc(-c2nn(-c3cccc(NC(=O)c4ccc(N5CCOCC5)c(C(F)(F)F)c4)c3)cc2-c2ccncc2)ccc1Cl ?
Given back: > 100 µM

###

Kindly supply the reported CC50 values for the records listed here.
Test system: CAKI-1
run-description: Growth inhibition of human CAKI-1 cells after 48 hrs by sulforhodamine B assay
Assay type: functional
condition-summary: CAKI-1, 48 h, read-out: LC50 (the source's name)

Use the examples below as a reference point.
COc1cc(-c2nn(-c3cccc(NC(=O)Nc4ccc(Cl)c(Cl)c4)c3)cc2-c2ccncc2)ccc1Cl : > 50 µM
COc1cc(-c2nn(-c3cccc(NC(=O)c4cccc(C(F)(F)F)c4)c3)cc2-c2ccncc2)ccc1Cl : > 50 µM

Field: next molecule
Asked: Recall the recorded CC50 for O=C(Nc1cccc(-n2cc(-c3ccncc3)c(-c3ccc(Cl)c(O)c3)n2)c1)Nc1ccc(Cl)c(Cl)c1 with CAKI-1 and state it.
Given back: > 32.5 µM

###

Exercise: state measured CC50 for each of the compounds provided.
run-description: Growth inhibition of human Hs 578T cells after 48 hrs by sulforhodamine B assay
Assay type: functional
condition-summary: read-out: LC50 (the source's name)

COc1cc(-c2nn(-c3cccc(NC(=O)c4ccccc4)c3)cc2-c2ccncc2)ccc1Cl : > 100 µM

Dear colleague, could you send me CC50 for each of the items below? Thanks.
1. O=C(Nc1cccc(-n2cc(-c3ccncc3)c(-c3ccc(Cl)c(O)c3)n2)c1)Nc1ccc(Cl)c(Cl)c1
2. COc1cc(-c2nn(-c3cccc(NC(=O)c4cccc(C(F)(F)F)c4)c3)cc2-c2ccncc2)ccc1Cl
3. COc1cc(-c2nn(-c3cccc(NC(=O)c4ccc(Cl)c(C(F)(F)F)c4)c3)cc2-c2ccncc2)ccc1Cl
4. COc1cc(-c2nn(-c3cccc(NC(=O)Nc4cc(C(F)(F)F)cc(C(F)(F)F)c4)c3)cc2-c2ccncc2)ccc1Cl

Given back:
> 32.5 µM
> 50 µM
> 32.5 µM
> 50 µM
